Each entry below carries its reported apparent KD of MS2 coat protein.
- Test system: MS2 coat protein
- assay notes: apparent KD of MS2 coat protein; designed switch direction (-1 OFF switch, 1 ON switch): -1; higher = weaker reporter binding
- assay context: input ligand: none
readout name: apparent KD of MS2 coat protein (nM)

>  <sequence data>
AACCUGAGGCUUUGCUUUAGGUGUACAUGAGGAUCACCCAUGUAGGAUAUGGUAGGCUUUGCUUACCAGAAGGACAUAAUGAUG [JL ENG3 1.16] (Eterna round: R96, puzzle: Exclusion NG 3)

>  <assay target>
MS2 coat protein

>  <readout name>
apparent KD of MS2 coat protein

>  <endpoint value>
55.2

$$$$
>  <sequence data>
AAUAACAAGUAGAUCCUAAACAUGAGGAUCACCCAUGUGCUCGUCUUGUAAAGUACUAUCACGAAAGUGAUAGUACA (Eterna round: R97, puzzle: Sensor, turn-off variant 1)

>  <assay target>
MS2 coat protein

>  <readout name>
apparent KD of MS2 coat protein

>  <endpoint value>
85.2

$$$$
>  <sequence data>
UAGAUGCUCAGGGAGUGUGACAUGAGGAUCACCCAUGUGGUGGUAGGGAACAAGCUUUUUGCACGUACUUAUGAGUA [JR_SV3TOV1_Sub007] (Eterna round: R96, puzzle: Sensor v3, turn-off variant 1)

>  <assay target>
MS2 coat protein

>  <readout name>
apparent KD of MS2 coat protein

>  <endpoint value>
497

$$$$
